# experiment summary: A CellTox Green Cytotoxicity Assay to monitor cytotoxicity in HEK293 cells - 8 hour (AID 1224884); further: nearly all actives have a fitted effect of over 35% in size
# settings: CellTox Green fluorescence; series mostly up to 76.8 µM
Records with an inconclusive call do not appear. Activity calls are given as the source filed them. The call rests on the fitted dose curve; in most records, active means well fitted activation curve with a large enough effect in the repeat runs; inconclusive means weak or mixed curves; inactive means flat fitted curve, though single readings scatter.
Respond using exactly one of the listed classes: 1 = active, -1 = inactive

Ask | I'd appreciate the recorded outcome for `Nc1cccc(S(=O)(=O)c2cccc(N)c2)c1` from this test.
Reply | -1

Ask | State the result this test recorded for `Nc1cc(C(=O)O)c(O)c(S(=O)(=O)O)c1` .
Reply | -1

Ask | Please share the test call associated with `COc1cc(Cl)c(OC)cc1N` .
Reply | -1

Ask | Hi, sorry to bother you, what did the test record for `C=C(C)C(=O)OCC` ?
Reply | -1

Ask | Returns: the outcome recorded for `C#CCN(C)CCCOc1ccc(Cl)cc1Cl` in this assay.
Reply | -1

Ask | Recorded call for `C/C=C(/C(=C/C)c1ccc(OC(C)=O)cc1)c1ccc(OC(C)=O)cc1` ?
Reply | -1

Ask | In this assay, the call recorded for `O=C(O)c1ccco1` was what?
Reply | -1

Ask | Tell me the assay call for `CC(C)(O)c1ccc(CNC(=O)c2cccnc2Oc2ccc(F)cc2)cc1` please.
Reply | -1

Ask | Which outcome was entered for the compound `Cc1c(N)cccc1[N+](=O)[O-]` in this test?
Reply | -1

Ask | Lab log entry: O=C(O)C(S)C(S)C(=O)O (stereo unspecified) — outcome as called in the assay?
Reply | -1

Ask | Recorded test call requested for `O=C1CCC(=O)O1`
Reply | -1

Ask | What did this assay record as the result for CC1(c2ccccc2)OC(C(=O)O)=CC1=O (stereo unspecified) ?
Reply | -1

Ask | How did this test come out for `Nc1cccc([N+](=O)[O-])c1` ?
Reply | -1

Ask | What is the recorded call for this compound in the test? C=CCOc1ccccc1OCC(O)CNC(C)C (stereo unspecified)
Reply | -1

Ask | Record request — test call for `C=CC(=O)OCCOCCOC(=O)C=C`
Reply | -1

Ask | Record request — test call for `CN1CCC(N(Cc2cccs2)c2ccccc2)CC1`
Reply | 1

Ask | Hi team, can someone confirm the assay call for CC(CC=O)c1ccccc1 (stereo unspecified) ?
Reply | -1

Ask | GET /call?item= `CCN(CC)CCNC(=O)c1cc(Br)c(N)cc1OC` returns the recorded outcome of this test.
Reply | -1

Ask | Outcome? `COC(=O)c1ccc(I)cc1S(=O)(=O)NC(=O)Nc1nc(C)nc(OC)n1`
Reply | -1

Ask | Check the results log: what was the call for `CCCCCCCCCCCC(=O)OC[C@@H](O)[C@H]1OC[C@H](OCCO)[C@H]1OCCO` ?
Reply | -1

Ask | Field: outcome | Entry: `C[C@@H]1C[C@H]2O[C@@]3(O[C@@H]2C(C)(C)O)[C@H](O)[C@@]2(C)[C@@H]4CC[C@H]5C(C)(C)[C@@H](O[C@@H]6OC[C@@H](O)[C@H](O)[C@H]6O)CC[C@@]56C[C@@]46CC[C@]2(C)[C@@H]13`
Reply | -1

Ask | How was `c1ccc(C(O[C@H]2CCCN(CCc3ccc4c(c3)OCO4)C2)c2ccccc2)cc1` classified in this test?
Reply | -1

Ask | How was `O=P(O)(OCc1ccccc1)OCc1ccccc1` classified in this test?
Reply | -1

Ask | Can you look up the reported call for COC(=O)C1=C(C)NC(COC(N)=O)=C(C(=O)OC(C)C)C1c1cccc(Cl)c1Cl (stereo unspecified) for me?
Reply | -1

Ask | What did the test return for `CN(C)c1ccc(C(c2ccccc2)c2ccc(N(C)C)cc2)cc1` ?
Reply | -1

Ask | Recorded call for `CCCCCCCCCOS(=O)(=O)O` ?
Reply | -1
